Test: clinical
Details: human, in vivo, po, functional half-life (t1/2), BID IR oral solution
OBSERVATION TYPE: half-life

For `CC[C@@H]1CN(C(=O)NCC(F)(F)F)C[C@@H]1c1cnc2cnc3[nH]ccc3n12` the compound record lists half-life as ~2 h

The reported measurements were obtained from patent US20260297101A1.
